measurementProtocol: Leishmania major promastigote growth inhibition, primary screen (AID 1063);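 also: promastigotes grown with compound for 44 hours at 28 °C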
conditionSet: Leishmania major promastigotes, resazurin fluorescence viability; at 10 µM
Among all 200,000 compounds or so, about 18,000 (9%) were called active. Rule as the data show it: active = inhibition above about 50%; inactive = the rest. This excerpt belongs to a sample that is enriched for actives.
Result category, one only: active, inactive

Answered examples (3):
{"compound": "COc1ccc(S(=O)(=O)Nc2ccc(O)c(Sc3nc4ccccc4s3)c2)cc1", "labelClass": "inactive"}
{"compound": "O=C1COc2ccc(C(=O)COC(=O)c3cccnc3Cl)cc2N1", "labelClass": "inactive"}
{"compound": "Cc1ccc2c(Cl)c(C(=O)Nc3nn[nH]n3)sc2c1", "labelClass": "inactive"}

Turning now to a further record.
stdin: Short answer needed: outcome of this test for CC(=O)Nc1ccc(NC(=O)COc2ccc(S(=O)(=O)NC(C)c3ccccc3)cc2)cc1 (stereo not given) ?
stdout: inactive
